- subject-of-test: T1, TCE-18 (anti-CD3 scFv Y108A; anti-TROP2 wt)
- T1 construct: scFv on the Fab heavy chain
- method-notes: competition ELISA, TCE on captured CD3
Where no end group is shown, it is not given here.
reported-metric: IC50

### Prompt # IC50 lookup, item VYCGPEFDESVGCA (cysteine pairing not given here; also: biotinylated, site not given here, mask peptide for the CD3 scFv) [Peptide-73]
### Response 110 nM
